B1: ZBED2 (parent)
chain: RAGHHPNQYATCRLCGRQVSRGPG

Variants of: B1
assay.procedure: protein stability index of a GFP-peptide fusion (GPS, HEK-293T) (PSI 1-6); higher = more stable;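 note: lentivirally expressed fusions sorted by FACS into six bins by GFP to DsRed ratio, PSI derived from sequencing read proportions per bin multiplied by bin number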
condition.set: c terminus: a fixed tail appended
Please provide measured protein stability index for the entries that follow.
Answer field: number only, no words.

[ask] Look at this variant and give its reported protein stability index. "Q8K"
[reply] 2.78

[ask] Look at this variant and give its reported protein stability index. "G3D"
[reply] 2.58

[ask] Look at this variant and give its reported protein stability index. "G24P"
[reply] 1.71

[ask] Look at this variant and give its reported protein stability index. "R13Q"
[reply] 1.04

[ask] Look at this variant and give its reported protein stability index. "A2M"
[reply] 1.97

[ask] Look at this variant and give its reported protein stability index. "R21F"
[reply] 1.78

[ask] Look at this variant and give its reported protein stability index. "H5T"
[reply] 1.37

[ask] Look at this variant and give its reported protein stability index. "Q8S"
[reply] 1.05

[ask] Look at this variant and give its reported protein stability index. "R21E"
[reply] 2.45

[ask] Look at this variant and give its reported protein stability index. "Q18N"
[reply] 2.12

[ask] Look at this variant and give its reported protein stability index. "R21C"
[reply] 2.54

[ask] Look at this variant and give its reported protein stability index. "H5Y"
[reply] 2.37

[ask] Look at this variant and give its reported protein stability index. "C12K"
[reply] 2.4

[ask] Look at this variant and give its reported protein stability index. "S20I"
[reply] 1.48

[ask] Look at this variant and give its reported protein stability index. "P6R"
[reply] 1.83

[ask] Look at this variant and give its reported protein stability index. "G24A"
[reply] 1.24

[ask] Look at this variant and give its reported protein stability index. "G3M"
[reply] 2.52

[ask] Look at this variant and give its reported protein stability index. "P23N"
[reply] 1.88

[ask] Look at this variant and give its reported protein stability index. "P23M"
[reply] 1.77

[ask] Look at this variant and give its reported protein stability index. "G22N"
[reply] 2.29

[ask] Look at this variant and give its reported protein stability index. "P23D"
[reply] 2.85

[ask] Look at this variant and give its reported protein stability index. "R17T"
[reply] 2.26
